Entry source: patent US8383637B2

Catalogue of inhibition at 3 µM values
Biological target: β-secretase(BACE) (Homo sapiens, UniProt P56817)
Construct: purchased Panvera
Sequence (P56817 46-501): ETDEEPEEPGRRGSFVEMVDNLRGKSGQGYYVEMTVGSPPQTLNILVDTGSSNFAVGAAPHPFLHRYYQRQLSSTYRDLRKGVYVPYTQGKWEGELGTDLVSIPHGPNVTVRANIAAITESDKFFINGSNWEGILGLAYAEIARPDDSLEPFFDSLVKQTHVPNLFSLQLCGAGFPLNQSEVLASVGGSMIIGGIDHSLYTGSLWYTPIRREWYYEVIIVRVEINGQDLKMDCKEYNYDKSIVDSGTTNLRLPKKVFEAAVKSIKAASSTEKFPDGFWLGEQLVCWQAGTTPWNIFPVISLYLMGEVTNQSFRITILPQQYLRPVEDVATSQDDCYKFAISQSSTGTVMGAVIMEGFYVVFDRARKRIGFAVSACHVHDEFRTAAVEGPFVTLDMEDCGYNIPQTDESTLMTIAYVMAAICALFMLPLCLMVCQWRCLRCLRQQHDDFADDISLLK
Assay: BACE FS1% Inhibition Assay
Type: biochemical
Details: 3 μM test compound; FS1 substrate; read-out: % Inhibition (FS)
Protocol: BACE FS1% Inhibition Assay The following reagents were used in this assay: sodium acetate, PEG8000 (Sigma), DMSO, HEPES, FS1 substrate [[…]] […] The FS1-substrate stock solution was prepared in DMSO as a 10 mg/mL solution. The FS1-substrate working solution was prepared by diluting the 10 mg/mL stock solution with substrate assay buffer to a final concentration of 300 μg/mL. […] For test compounds, % inhibition was determined at each concentration as follows: [formula]
Your answer should be a plain number; it is taken to be in %.

Take a look at these entries with their results.
smiles_entry=Cc1ccccc1-c1ccc2c(c1)CN(CCNC(=O)C1CCOCC1)C(N)=N2 quantity_unit=% measured_value=109
smiles_entry=COC(=O)[C@@H](COCc1ccccc1)N(C)C(=O)CC[C@@H](C1CCCCC1)N1Cc2cc(Oc3ccccc3)ccc2N=C1N quantity_unit=% measured_value=120
smiles_entry=CN(C(=O)CC[C@@H](C1CCCCC1)N1Cc2cc(Oc3ccccc3)ccc2N=C1N)[C@H]1CC[C@H](C(=O)O)CC1 quantity_unit=% measured_value=104
smiles_entry=CN(C(=O)CC[C@@H](C1CCCCC1)N1Cc2cc(Oc3ccccc3)ccc2N=C1N)[C@H]1CC[C@@H](C(N)=O)CC1 quantity_unit=% measured_value=116
smiles_entry=COc1ccccc1-c1ccc2c(c1)CN([C@@H](CCC(=O)N(C)CCC#N)C1CCCCC1)C(N)=N2 quantity_unit=% measured_value=138

Now for the compound whose inhibition at 3 µM we want.
## Input Give me measured inhibition at 3 µM, please, for this compound: CN(C(=O)CC[C@@H](C1CCOCC1)N1Cc2cc(Oc3ccccc3)ccc2N=C1N)[C@H](COCc1ccccc1)C(=O)O
## Output 120

###

target: β-secretase(BACE) (Homo sapiens, UniProt P56817); construct: purchased Panvera; test: BACE FS1% Inhibition Assay; type: biochemical; details: 1 μM test compound; FS1 substrate; read-out: % Inhibition (FS) 1 μM
ENDPOINT_NAME: inhibition at 1 µM (%)
Your answer should be a plain number; it is taken to be in %.

Take a look at these entries with their results.
smiles_entry=CCCC(CCC)C(=O)NCCN1Cc2cc(Oc3ccccc3)ccc2N=C1N tgt="β-secretase(BACE) (Homo sapiens, UniProt P56817)" measured_value=93
smiles_entry=COc1ccccc1C(=O)NCCN1Cc2cc(Oc3ccccc3)ccc2N=C1N tgt="β-secretase(BACE) (Homo sapiens, UniProt P56817)" measured_value=45
smiles_entry=COc1ccccc1-c1ccc2c(c1)CN(CCC(=O)NC1CCCCC1)C(N)=N2 tgt="β-secretase(BACE) (Homo sapiens, UniProt P56817)" measured_value=106

## Input Give me measured inhibition at 1 µM, please, for this compound: CN(C(=O)c1cccc(CN2Cc3cc(-c4ccccc4C(N)=O)ccc3N=C2N)c1)C1CCCCC1
## Output 53

## Input Give me measured inhibition at 1 µM, please, for this compound: CN(C(=O)c1cccc(CN2Cc3cc(-c4ccccc4O)ccc3N=C2N)c1)C1CCCCC1
## Output 104

## Input Give me measured inhibition at 1 µM, please, for this compound: CN(C(=O)c1cccc(CN2Cc3cc(-c4ccccc4Cl)ccc3N=C2N)c1)C1CCCCC1
## Output 86

###

Catalogue of IC50 values
molecular target: β-secretase(BACE) (Homo sapiens); construct: purchased Panvera; assay: BACE Assay-1 (MCA-substrate, IC50); type: biochemical; settings: procedure of Example 158; read-out: IC50 μM (158)
Your answer should be a plain number; it is taken to be in µM.

molecule=NC1=Nc2ccc(Oc3ccccc3)cc2CN1CCNC(=O)C12CC3CC(CC(C3)C1)C2 tgt="β-secretase(BACE) (Homo sapiens)" measured_value=0.1
molecule=CC(C)OC(=O)NCCN1Cc2cc(Oc3ccccc3)ccc2N=C1N tgt="β-secretase(BACE) (Homo sapiens)" measured_value=0.45

## Input Give me measured IC50, please, for this molecule: CN(C(=O)c1cccc(CN2Cc3cc(-c4c(Cl)cccc4Cl)ccc3N=C2N)c1)C1CCCCC1
## Output 0.25

## Input Give me measured IC50, please, for this molecule: NC1=Nc2ccc(Oc3ccccc3)cc2CN1C(CCNC(=O)CC1CCCC1)C1CCCCC1 (stereo not drawn)
## Output 0.15

## Input Give me measured IC50, please, for this molecule: CN(C(=O)c1cccc(CN2Cc3cc(-c4ccccc4CC#N)ccc3N=C2N)c1)C1CCCCC1
## Output 0.089

## Input Give me measured IC50, please, for this molecule: CC(C)CCC(=O)NC[C@@H](C(C)C)N1Cc2cc(Oc3ccccc3)ccc2N=C1N
## Output 0.018

## Input Give me measured IC50, please, for this molecule: CN(Cc1cccc2ccccc12)C(=O)CCN1Cc2cc(C(=O)c3ccccc3)ccc2N=C1N
## Output 15

###

biological target: β-secretase(BACE) (Homo sapiens, UniProt P56817); construct: purchased Panvera; experiment: BACE FS1% Inhibition Assay; assay type: biochemical; settings: 3 μM test compound; FS1 substrate; read-out: % Inhibition (FS) 3 μM
Catalogue of inhibition at 3 µM values
Your answer should be a plain number; it is taken to be in %.

Take a look at these entries with their results.
compound=CN(C(=O)c1cccc(CN2Cc3cc(-c4ccccc4O)ccc3N=C2N)c1)C1CCCCC1 quantity_unit=% measured_value=109
compound="CCCCC(CC)C(=O)NCCN1Cc2cc(Oc3ccccc3)ccc2N=C1N (stereo not shown)" quantity_unit=% measured_value=101

Now for the compound whose inhibition at 3 µM we want.
## Input Give me measured inhibition at 3 µM, please, for this compound: CN(C(=O)c1ccc(CN2Cc3cc(Oc4ccccc4)ccc3N=C2N)o1)C1CCCCC1
## Output 94

###

target: β-secretase(BACE) (Homo sapiens, UniProt P56817); construct: purchased Panvera; test: BACE FS1% Inhibition Assay; assay type: biochemical; details: 1 μM test compound; FS1 substrate; 1 µM
Catalogue of % Inhibition (FS) 1 μM values

Take a look at these entries with their results.
molecule="CCCC(CNC(=O)C1CCCCC1)N1Cc2cc(Oc3ccccc3)ccc2N=C1N (stereo not drawn) [Compound 554]" measured_value=<30%
molecule="NC1=Nc2ccc(-c3ccc(F)cc3)cc2CN1CCNC(=O)C1CCCCC1 [Compound 623]" measured_value=<30%

Now for the molecule whose % Inhibition (FS) 1 μM we want.
## Input Give me measured % Inhibition (FS) 1 μM, please, for this molecule: CCCC(CNC(=O)C12CC3CC(CC(C3)C1)C2)N1Cc2cc(Oc3ccccc3)ccc2N=C1N (stereo not drawn) [Compound 555]
## Output <30%

###

target: β-secretase(BACE) (Homo sapiens); construct: purchased Panvera; test: BACE FS1% Inhibition Assay; type: biochemical; conditions: 1 μM test compound; FS1 substrate
ENDPOINT_NAME: % Inhibition (FS) 1 μM

Take a look at these entries with their results.
compound="NC1=Nc2ccc(Oc3ccccc3)cc2CN1C1CCCCN(C(=O)C2CCCCC2)C1 (centres unmarked) [Compound 551]" measured_value=<30%
compound="CC(C)(C)C(=O)NCCN1Cc2cc(-c3ccncc3)ccc2N=C1N [Compound 573]" measured_value=<30%
compound="COc1ccccc1Sc1ccc2c(c1)CN(Cc1cccc(C(=O)N(C)C3CCCCC3)c1)C(N)=N2 [Compound 412]" measured_value=<30%
compound="Cc1cc(C(=O)NCCN2Cc3cc(-c4cccc(C(F)(F)F)c4)ccc3N=C2N)c(C)o1 [Compound 590]" measured_value=<30%

## Input Give me measured % Inhibition (FS) 1 μM, please, for this compound: NC1=Nc2ccc(Oc3ccccc3)cc2CN1Cc1cccc(CNC(=O)C(F)(F)F)c1 [Compound 307]
## Output <30%

## Input Give me measured % Inhibition (FS) 1 μM, please, for this compound: CC(c1ccccc1)c1ccc2c(c1)CN(Cc1cccc(C(=O)N(C)C3CCCCC3)c1)C(N)=N2 (centres unmarked) [Compound 332]
## Output <30%

## Input Give me measured % Inhibition (FS) 1 μM, please, for this compound: NC1=Nc2ccc(Oc3ccccc3)cc2CN1[C@H](CNC(=O)C1CCCCC1)C1CCCCC1 [Compound 484]
## Output <30%

## Input Give me measured % Inhibition (FS) 1 μM, please, for this compound: CN(C(=O)c1ccc(CN2Cc3cc(Oc4ccccc4)ccc3N=C2N)s1)C1CCCCC1 [Compound 503]
## Output <30%

## Input Give me measured % Inhibition (FS) 1 μM, please, for this compound: CC(C)(C)C(=O)NCCN1Cc2cc(-c3ccccc3F)ccc2N=C1N [Compound 646]
## Output 72%

## Input Give me measured % Inhibition (FS) 1 μM, please, for this compound: CC(=O)Nc1ccc(C(=O)NCCN2Cc3cc(-c4ccccc4)ccc3N=C2N)cc1 [Compound 591]
## Output <30%

## Input Give me measured % Inhibition (FS) 1 μM, please, for this compound: CSc1ccc(Nc2ccc3c(c2)CN(Cc2cccc(C(=O)N(C)C4CCCCC4)c2)C(N)=N3)cc1 [Compound 442]
## Output 58%
